src = patent US20260209247A1

Target: nucleotide exchange on hKRASG12C mediated by hSOS1 (Homo sapiens, UniProt Q07889)
Sequence (Q07889 564-1049): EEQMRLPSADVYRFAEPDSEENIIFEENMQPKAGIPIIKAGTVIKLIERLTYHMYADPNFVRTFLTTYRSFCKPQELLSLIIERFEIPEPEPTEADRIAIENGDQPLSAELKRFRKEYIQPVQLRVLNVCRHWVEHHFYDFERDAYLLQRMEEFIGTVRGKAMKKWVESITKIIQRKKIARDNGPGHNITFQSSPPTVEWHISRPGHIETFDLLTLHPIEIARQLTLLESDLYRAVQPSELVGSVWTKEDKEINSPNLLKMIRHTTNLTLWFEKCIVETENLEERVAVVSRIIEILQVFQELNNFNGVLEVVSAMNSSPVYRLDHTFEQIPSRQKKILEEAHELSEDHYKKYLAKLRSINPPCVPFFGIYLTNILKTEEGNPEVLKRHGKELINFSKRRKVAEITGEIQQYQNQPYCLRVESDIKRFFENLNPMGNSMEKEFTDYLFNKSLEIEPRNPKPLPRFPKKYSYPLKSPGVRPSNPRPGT
Value kind: IC50

>>> val("Cc1nc(N[C@H](C)c2cccc(C(F)(F)CO)c2F)c2cc3c(cc2n1)OC1(CC1)C(=O)N3C")
"1 to 30 nM"
>>> val("Cc1nc(N[C@H](C)c2cccc(C(F)(F)C(C)(O)CF)c2F)c2cc3c(cc2n1)OC(C)(C)C(=O)N3C (stereo partly shown)")
"1 to 30 nM"
>>> val("Cc1nc(N[C@H](C)c2cccc(C(F)(F)CO)c2F)c2cc3c(cc2n1)N(C)C(=O)C3(C)C")
"1 to 30 nM"
>>> val("COCC(C)(O)C(F)(F)c1cccc([C@@H](C)Nc2nc(C)nc3cc4c(cc23)N(C)C(=O)C(C)(C)O4)c1F (single isomer, unassigned) [Compound 53b]")
"1 to 30 nM"
>>> val("CCOC1(C)C(=O)N(C)c2cc3c(N[C@H](C)c4cccc(C(F)(F)C(C)(C)O)c4F)nc(C)nc3cc21 (single isomer, unassigned) [Compound 121a]")
"31 to 130 nM"
>>> val("Cc1nc(N[C@H](C)c2cccc(C(F)(F)C(C)(C)O)c2F)c2cc3c(cc2n1)C1(CCOC1)C(=O)N3C (single isomer, unassigned) [Compound 128b]")
"31 to 130 nM"
>>> val("Cc1nc(N[C@H](C)c2cccc(C(F)(F)CO)c2F)c2cc3c(cc2n1)OC(C)(C)C(=O)N3C")
"1 to 30 nM"
>>> val("CCN1C(=O)C(C)(C)c2cc3nc(C)nc(N[C@H](C)c4cccc(C(F)(F)C(C)(C)O)c4F)c3cc21")
"1 to 30 nM"
>>> val("Cc1nc(N[C@H](C)c2cccc(C(F)(F)C(C)(C)O)c2F)c2cc3c(cc2n1)CC(=O)N3C")
"31 to 130 nM"
>>> val("Cc1nc(N[C@H](C)c2cccc(C(F)(F)C(C)(C)O)c2F)c2cc3c(cc2n1)N(C)C(C)(C)C(=O)N3C")
"1 to 30 nM"
>>> val("Cc1nc(N[C@H](C)c2cccc(C(F)(F)C(C)(C)O)c2F)c2cc3c(cc2n1)N(C)C(C)C(=O)N3C (single isomer, unassigned) [Compound 27b]")
"1 to 30 nM"
>>> val("COC1(C)C(=O)N(C)c2cc3nc(C)nc(N[C@H](C)c4cccc(C(F)(F)C(C)(C)O)c4F)c3cc21 (mixture of isomers)")
"1 to 30 nM"
>>> val("Cc1nc(N[C@H](C)c2cccc(C(F)(F)C(C)(C)O)c2F)c2cc3c(cc2n1)OC(C)(C)CN3C")
"31 to 130 nM"
